# Organism: Rattus norvegicus
# condition.description: Cerebral cortex
# Description: Displacement of [3H]BTX-B from neuronal voltage-gated sodium channel in rat cerebral cortex synaptoneurosomes after 60 mins by scintillation counting
Threshold rule: logIC50 greater than or equal to 0.8 is met; below that, not met.

- compound: "NCCCCCCNS(=O)(=O)c1cccc2ccccc12"
  discrete.label: "met"
- compound: "CCCCCCCCCC1(c2ccccc2)NC(=O)N(Cc2ccccc2)C1=O (stereo not drawn)"
  discrete.label: "not met"
- compound: "O=C1NC(=O)C2(CCCCc3ccccc32)N1 (stereo not drawn)"
  discrete.label: "met"
- compound: "CCCCCCCC1(c2ccccc2)NC(=O)N(S(C)(=O)=O)C1=O (stereo not drawn)"
  discrete.label: "met"
- compound: "Clc1ccc(C(c2ccc(Cl)cc2)[n+]2ccn(CC(OCc3ccc(Cl)cc3Cl)c3ccc(Cl)cc3Cl)c2)cc1 (stereo not drawn)"
  discrete.label: "met"
- compound: "COC(=O)[C@H]1[C@@H](OC(=O)c2ccccc2)C[C@@H]2CC[C@H]1N2C"
  discrete.label: "met"
- compound: "CN(C)CCC(c1ccccc1)c1ccccn1 (stereo not drawn)"
  discrete.label: "met"
- compound: "CC12C(=O)NC(=O)N1CCc1ccccc12 (stereo not drawn)"
  discrete.label: "met"
- compound: "CCCCCC(O)(C(=O)N1CCN(C(c2ccccc2)c2ccccc2)CC1)c1ccccc1 (stereo not drawn)"
  discrete.label: "not met"
- compound: "CCCC1(c2ccccc2)OC(=O)NC1=O (stereo not drawn)"
  discrete.label: "met"
- compound: "CCOc1ccc(/N=C(\\C)Nc2ccc(OCC)cc2)cc1"
  discrete.label: "not met"
- compound: "CCCOc1cc(N)ccc1C(=O)OCCN(CC)CC"
  discrete.label: "met"
- compound: "CCC(O)(C(=O)NCCC(c1ccccc1)c1ccccc1)c1ccccc1 (stereo not drawn)"
  discrete.label: "met"
- compound: "Cc1cccc(C)c1NC(=O)C(C)N (stereo not drawn)"
  discrete.label: "met"
- compound: "CCCCc1cc2ccccc2c(OCCN(C)C)n1"
  discrete.label: "not met"
- compound: "CCCCCCCC1(c2ccccc2)NC(=O)NC1=O (stereo not drawn)"
  discrete.label: "not met"
- compound: "CCOC(=O)c1ccc(N)cc1"
  discrete.label: "met"
- compound: "CCN1C(=O)NC(=O)C1(C)c1ccccc1 (stereo not drawn)"
  discrete.label: "met"
- compound: "C[N+](C)(CC(=O)Nc1ccccc1)CC(=O)Nc1ccccc1"
  discrete.label: "not met"
- compound: "CCCCCC(O)(C(=O)NCCCc1ccccc1)c1ccccc1 (stereo not drawn)"
  discrete.label: "not met"
- compound: "CCCNC(C)C(=O)Nc1ccccc1C (stereo not drawn)"
  discrete.label: "met"
